Measured values drawn from patent US20260242478A1 for this set.

biological target: Anti-CD28 Fab (SEQ ID NOs: 696, 697); assay: phage binding ELISA; biotinylated anti-CD28 Fab captured on neutravidin plate, clonal phage supernatant, anti-M13 HRP detection
Sequence (VH, as listed by the source, chain 1 of 2): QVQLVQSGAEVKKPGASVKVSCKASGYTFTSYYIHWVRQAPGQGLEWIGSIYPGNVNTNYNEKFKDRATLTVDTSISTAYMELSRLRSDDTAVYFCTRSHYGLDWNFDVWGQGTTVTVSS
Sequence (VL, as listed by the source, chain 2 of 2): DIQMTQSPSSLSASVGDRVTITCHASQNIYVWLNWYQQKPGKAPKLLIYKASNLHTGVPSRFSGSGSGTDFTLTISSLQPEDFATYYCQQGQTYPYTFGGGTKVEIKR
Where no end group is shown, it is not given here.
outcome measure: Anti-CD28 Fab signal (phage binding ELISA)
Just the number.

binder	numeric readout
YCAGHAPEYMEKCL (peptide, not shown: large carriers, Clonal phage supernatant of the Peptide-87 optimisation library) [Phage-501]	2.45
YCEGHLPQYMWKCL (peptide, not shown: large carriers, Clonal phage supernatant of the Peptide-87 optimisation library) [Phage-504]	2.44

Now look at this entry.
Quick one: Anti-CD28 Fab signal (phage binding ELISA) for YCEGHLPQYMQKCL (peptide, not shown: large carriers, cysteine pairing not given here; also: displayed on phage as fusion to pIII, linker, pIII sequence and order not given here, Clonal phage supernatant of the Peptide-87 optimisation library) [Phage-512] ?
2.39
